# subject-of-test: T1, FinO (F-like plasmid (Escherichia coli), UniProt P29367 1-186)
# T1 sequence: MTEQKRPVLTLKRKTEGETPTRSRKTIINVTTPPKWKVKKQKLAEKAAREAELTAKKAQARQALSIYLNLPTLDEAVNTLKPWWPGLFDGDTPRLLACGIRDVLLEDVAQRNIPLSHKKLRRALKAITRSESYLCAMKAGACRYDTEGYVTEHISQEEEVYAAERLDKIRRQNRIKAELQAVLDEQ
# protocol-text: EMSA; max bound 57%; 150 mM NaCl, 25 mM Tris-HCl pH 7.5, 5% glycerol, 1 mM MgCl2, 1 nM 32P-RNA, 30 min at room temperature; native 6% PAGE in 0.5x TBE at 4 C
# condition-summary: protein: recombinant; tags: His6-TEV site (ENLYFQ/S) N-terminal in the expression construct; label: 32P; terminator hairpin
pKd: −log10 of the molar value.

- binder: "FinP-malM (structured_RNA) RNA: GGAUACAUAGGAACCUCCUCACAAAGGAUUCUAUGGACUGUCGAUGCAGGGAGUUCACGUCUCCCUGCAUCGGCUUUUUUU"
  pKd: 6.55
